This collection of values is drawn from ChEMBL document CHEMBL4371051.

- Test system: HeLa
- Assay Comment: Antiproliferative activity against human HeLa cells after 24 hrs by cell titer 96 aqueous non-radioactive cell proliferation assay
- Format: functional, cell-based
Assay Readout: IC50 (µM)

Solved entries:
CN(CCc1ccc(O)c(O)c1)C(=S)NCCc1ccc(Cl)cc1 ... 30
CC(C)C1c2cc(O)c(O)cc2CCN1C(=S)NCc1ccccc1 (stereo unspecified) ... 35
Oc1ccc2c(c1)CCCN(C(=S)NCCc1ccc(Cl)cc1)C2 ... 65

[1] Oc1cc2c(cc1O)C(c1ccccc1)N(C(=S)NCCc1ccc(Cl)cc1Cl)CC2 (stereo unspecified)
[2] CN(Cc1ccc(O)c(O)c1)C(=O)NCCc1ccc(Cl)cc1
IN: Returns the identifier with the smallest measured IC50 among 1 and 2 . Let me know the label of the one you choose.
OUT: 1
(1: 20 µM, 2: 30 µM)

[1] Oc1ccc2c(c1)CN(C(=S)NCCc1ccc(Cl)cc1)CCC2
[2] Oc1cc2c(cc1O)CN(C(=S)NCCc1ccc(Cl)cc1Cl)CC2
IN: Higher IC50: 1 or 2 ? Let me know the label of the one you choose.
OUT: 1

[I] COc1ccc(CCNC(=S)N2CCc3cc(O)c(O)cc3C2c2ccccc2)cc1 (stereo unspecified)
[II] CC(C)C1c2cc(O)c(O)cc2CCN1C(=S)NCCc1ccc(Cl)cc1 (stereo unspecified)
IN: Returns the identifier with the smallest measured IC50 among I and II . Let me know the label of the one you choose.
OUT: I
